- Subject of test: T1, recombinant SARS-CoV-2 Spike RBD domain, Wuhan (SARS-CoV-2)
- T1 construct: also called RBD Wuhan
- Assay overview: competition ELISA, blocking of RBD binding to ACE2 ectodomain

Binder	Blocking %, %
SPK002M B1 antibody (antibody, human IgG1, kappa, V domains shown) VH: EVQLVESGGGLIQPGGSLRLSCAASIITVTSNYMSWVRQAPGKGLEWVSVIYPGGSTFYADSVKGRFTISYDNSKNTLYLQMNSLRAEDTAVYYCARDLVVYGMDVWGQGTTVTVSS VL: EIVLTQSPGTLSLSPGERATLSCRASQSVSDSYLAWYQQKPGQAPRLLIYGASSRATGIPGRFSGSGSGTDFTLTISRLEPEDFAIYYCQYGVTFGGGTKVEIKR	87
SPK002M A1 antibody (antibody, human IgG1, kappa, V domains shown) VH: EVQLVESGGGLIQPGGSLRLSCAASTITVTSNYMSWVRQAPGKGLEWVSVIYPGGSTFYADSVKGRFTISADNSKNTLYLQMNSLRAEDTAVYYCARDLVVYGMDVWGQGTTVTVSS VL: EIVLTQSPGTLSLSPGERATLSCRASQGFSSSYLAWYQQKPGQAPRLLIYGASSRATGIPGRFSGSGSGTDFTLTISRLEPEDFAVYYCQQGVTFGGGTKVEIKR	92
SPK002M A4 antibody (antibody, human IgG1, kappa, V domains shown) VH: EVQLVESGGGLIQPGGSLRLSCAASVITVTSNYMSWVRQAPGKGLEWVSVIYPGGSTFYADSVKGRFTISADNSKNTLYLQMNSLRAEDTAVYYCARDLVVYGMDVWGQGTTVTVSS VL: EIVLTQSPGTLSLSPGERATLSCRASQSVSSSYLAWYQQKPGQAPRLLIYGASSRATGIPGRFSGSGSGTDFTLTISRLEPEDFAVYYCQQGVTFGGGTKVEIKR	88
SPK002M C1 antibody (antibody, human IgG1, kappa, V domains shown) VH: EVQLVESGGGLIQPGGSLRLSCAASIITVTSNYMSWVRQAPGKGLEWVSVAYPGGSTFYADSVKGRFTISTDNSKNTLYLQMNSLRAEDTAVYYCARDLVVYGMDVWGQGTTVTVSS VL: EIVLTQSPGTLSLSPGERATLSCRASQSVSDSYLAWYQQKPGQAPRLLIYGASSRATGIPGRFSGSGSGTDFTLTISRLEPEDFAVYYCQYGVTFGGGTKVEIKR	94
SPK002M B2 antibody (antibody, human IgG1, kappa, V domains shown) VH: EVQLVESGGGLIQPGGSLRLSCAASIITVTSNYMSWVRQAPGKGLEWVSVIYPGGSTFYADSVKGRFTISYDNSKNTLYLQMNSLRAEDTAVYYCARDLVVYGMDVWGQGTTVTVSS VL: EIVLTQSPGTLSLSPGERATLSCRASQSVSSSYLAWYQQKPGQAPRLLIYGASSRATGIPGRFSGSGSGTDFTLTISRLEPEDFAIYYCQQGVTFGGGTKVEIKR	90
